# protocol-description: Ratio to Ins(1,4,5)P3 was measured(ratio greater than 1 denotes greater affinity and less than -1 denotes lesser affinity)
Here the recorded Ratio is given for each entry.
API doc: respond with a numeric literal and nothing else, no unit.

Answered cases to consult:
- compound: "Nc1ncnc2c1ncn2[C@@H]1O[C@H](CO)[C@@H](O[C@H]2O[C@H](CO)[C@@H](OP(=O)(O)O)[C@H](OP(=O)(O)O)[C@H]2O)[C@H]1OP(=O)(O)O [ADENOPHOSTIN A]"
  Ratio: 8.3
- compound: "O=P(O)(O)O[C@H]1CO[C@@H]2[C@H](O)[C@@H](OP(=O)(O)O)[C@H](OP(=O)(O)O)[C@@H](O)[C@@H]2OC1"
  Ratio: -14
- compound: "O=P(O)(O)O[C@@H]1[C@H](O)[C@H](O)[C@@H](OP(=O)(O)O)[C@H](OP(=O)(O)O)[C@H]1O [INS(1,4,5)P3]"
  Ratio: 1

Continue with the compound presented below.
Write down Ratio measured for item `O=P(O)(O)O[C@@H]1CO[C@@H]2[C@H](O)[C@@H](OP(=O)(O)O)[C@H](OP(=O)(O)O)[C@@H](O)[C@@H]2OC1`
-21

###

# protocol-description: Binding affinity towards rat liver membrane, measured using equilibrium competition binding with [3H]Inositol(1,4,5)P3
observation-type: pKd
Entry type: numeric. Quantity: pKd, the -log10 of concentration in molar units.

Return the recorded pKd value; entry: Nc1ncnc2c1ncn2[C@@H]1O[C@H](CO)[C@@H](O[C@H]2O[C@H](CO)[C@@H](OP(=O)(O)O)[C@H](OP(=O)(O)O)[C@H]2O)[C@H]1OP(=O)(O)O [ADENOPHOSTIN A]
9.26

// fetch pKd given entry `O=P(O)(O)O[C@@H]1CO[C@@H]2[C@H](O)[C@@H](OP(=O)(O)O)[C@H](OP(=O)(O)O)[C@@H](O)[C@@H]2OC1`
7.01

Give pKd for the following compound: `O=P(O)(O)O[C@H]1CO[C@@H]2[C@H](O)[C@@H](OP(=O)(O)O)[C@H](OP(=O)(O)O)[C@@H](O)[C@@H]2OC1`
7.21

Complete the entry with pKd for O=P(O)(O)O[C@@H]1[C@H](O)[C@H](O)[C@@H](OP(=O)(O)O)[C@H](OP(=O)(O)O)[C@H]1O [INS(1,4,5)P3]
8.34

###

# protocol-description: Hill coefficient, measured using equilibrium competition binding with [3H]Inositol(1,4,5)P3
observation-type: Hill coefficient
// keep it numeric: no unit symbol after the value

Completed entries (count: 3):
- entry-smiles: "O=P(O)(O)O[C@H]1CO[C@@H]2[C@H](O)[C@@H](OP(=O)(O)O)[C@H](OP(=O)(O)O)[C@@H](O)[C@@H]2OC1"
  Hill coefficient: 1.12
- entry-smiles: "O=P(O)(O)O[C@@H]1[C@H](O)[C@H](O)[C@@H](OP(=O)(O)O)[C@H](OP(=O)(O)O)[C@H]1O"
  Hill coefficient: 1.16
- entry-smiles: "O=P(O)(O)O[C@@H]1CO[C@@H]2[C@H](O)[C@@H](OP(=O)(O)O)[C@H](OP(=O)(O)O)[C@@H](O)[C@@H]2OC1"
  Hill coefficient: 1.01

State its Hill coefficient for this molecule: `Nc1ncnc2c1ncn2[C@@H]1O[C@H](CO)[C@@H](O[C@H]2O[C@H](CO)[C@@H](OP(=O)(O)O)[C@H](OP(=O)(O)O)[C@H]2O)[C@H]1OP(=O)(O)O`
1.17

Numbers sourced from ChEMBL document CHEMBL1134512.
